test system: LOC_OS05G28520-cb001; assay: thermal shift delta Tm vs DMSO control; higher = stronger stabilization (binding); conditions: 12.5 µM; protein concentration 2 µM;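 further: purified Escherichia coli-expressed rice kinase domain construct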
Structures can show the parent of a compound that is named as a salt.
Reported thermal shift delta Tm values for a set of compounds

| compound | subject_of_test | thermal shift delta Tm |
| --- | --- | --- |
| CC(C)Oc1ccc(-c2nn([C@@H](C)c3oc4ccc(F)cc4c(=O)c3-c3cccc(F)c3)c3ncnc(N)c23)cc1F | LOC_OS05G28520-cb001 | 0.51 °C |
| CCN(CC)CCNC(=O)c1c(C)[nH]c(/C=C2\C(=O)Nc3ccc(-c4csc(-c5ccccc5)n4)cc32)c1C [Amcasertib (BBI503)] | LOC_OS05G28520-cb001 | 2.76 °C |
| COc1cc2c3cc1Oc1c(OC)c(OC)cc4c1[C@@H](Cc1ccc(O)c(c1)Oc1ccc(cc1)C[C@@H]3N(C)CC2)N(C)CC4 [Berbamine (dihydrochloride)] | LOC_OS05G28520-cb001 | -0.11 °C |
| COc1cc2ncnc(Nc3ccc(F)c(Cl)c3)c2cc1NC(=O)/C=C/CN1CCCCC1 | LOC_OS05G28520-cb001 | 1.09 °C |
| Cn1cnc2c(F)c(Nc3ccc(Br)cc3Cl)c(C(=O)NOCCO)cc21 [Selumetinib (AZD6244)] | LOC_OS05G28520-cb001 | 0.43 °C |
| O=C(O)CCC(=O)Nc1ccc(Br)cn1 [Bikinin] | LOC_OS05G28520-cb001 | 0.89 °C |
| Cn1c(=O)c(Oc2ccc(F)cc2F)cc2cnc(NC(CCO)CCO)nc21 | LOC_OS05G28520-cb001 | 0.51 °C |
| CC(C)c1c2cc(-c3ccnc(NC4CCC(NC5CCOCC5)CC4)n3)ccc2nn1C (stereo unspecified) | LOC_OS05G28520-cb001 | 0.56 °C |
| O=C1Nc2ccc(I)cc2/C1=C/c1cc(Br)c(O)c(Br)c1 | LOC_OS05G28520-cb001 | 2.07 °C |
| CC(C)(O)CNc1ncc(-c2ccnc(Nc3ccnc(Cl)c3)n2)c(CC2CC2)n1 | LOC_OS05G28520-cb001 | 0.75 °C |
| Cc1cc(C(=O)Nc2nc3cccc(Cl)c3n2[C@@H]2CCCCN(C(=O)/C=C/CN(C)C)C2)ccn1 [Nazartinib (EGF816, NVS-816)] | LOC_OS05G28520-cb001 | 0.54 °C |
| COc1ccc(F)c(F)c1C(=O)c1cnc(NC2CCN(S(C)(=O)=O)CC2)nc1N | LOC_OS05G28520-cb001 | 0.04 °C |
| O=C1NC(=O)/C(=C/c2ccc(-c3ccc(F)cc3O)o2)S1 | LOC_OS05G28520-cb001 | 1.52 °C |
| O=c1cc(N2CCOCC2)oc2c(-c3ccc4c(c3)OCCO4)csc12 | LOC_OS05G28520-cb001 | -0.12 °C |
| CCNC(=O)C#Cc1ccc2c(C(=Nc3ccc(CN(C)C)cc3)c3ccccc3)c(O)[nH]c2c1 | LOC_OS05G28520-cb001 | 0.18 °C |
| C[C@@H]1COCCN1c1cc(=O)n2c(n1)N(Cc1cncc(Cl)c1)[C@H](C(F)(F)F)CC2 | LOC_OS05G28520-cb001 | 1.37 °C |
| C=CC(=O)Nc1cccc(Nc2nc(Nc3ccc(OCCOC)cc3)ncc2F)c1 | LOC_OS05G28520-cb001 | 1.99 °C |
| O=C(O)c1ccc2c3c1cccc3c(=O)n1c3ccccc3nc21 | LOC_OS05G28520-cb001 | 0.41 °C |
| N#Cc1ccc2[nH]c(O)c(-c3ccc(CN4CCOCC4)cn3)c2c1 | LOC_OS05G28520-cb001 | 0.81 °C |
| C[C@H]1CNC(=O)c2cnn3ccc(nc23)N[C@H](C)c2cc(F)ccc2O1 | LOC_OS05G28520-cb001 | 0.06 °C |
| COc1cc(-c2cc(-c3ccc(N4CCNCC4)cc3)cnc2C)cc(OC)c1OC | LOC_OS05G28520-cb001 | 0.5 °C |
